# system_under_test: High affinity nerve growth factor receptor (Homo sapiens, UniProt P04629)
# Sequence (P04629 whole entry): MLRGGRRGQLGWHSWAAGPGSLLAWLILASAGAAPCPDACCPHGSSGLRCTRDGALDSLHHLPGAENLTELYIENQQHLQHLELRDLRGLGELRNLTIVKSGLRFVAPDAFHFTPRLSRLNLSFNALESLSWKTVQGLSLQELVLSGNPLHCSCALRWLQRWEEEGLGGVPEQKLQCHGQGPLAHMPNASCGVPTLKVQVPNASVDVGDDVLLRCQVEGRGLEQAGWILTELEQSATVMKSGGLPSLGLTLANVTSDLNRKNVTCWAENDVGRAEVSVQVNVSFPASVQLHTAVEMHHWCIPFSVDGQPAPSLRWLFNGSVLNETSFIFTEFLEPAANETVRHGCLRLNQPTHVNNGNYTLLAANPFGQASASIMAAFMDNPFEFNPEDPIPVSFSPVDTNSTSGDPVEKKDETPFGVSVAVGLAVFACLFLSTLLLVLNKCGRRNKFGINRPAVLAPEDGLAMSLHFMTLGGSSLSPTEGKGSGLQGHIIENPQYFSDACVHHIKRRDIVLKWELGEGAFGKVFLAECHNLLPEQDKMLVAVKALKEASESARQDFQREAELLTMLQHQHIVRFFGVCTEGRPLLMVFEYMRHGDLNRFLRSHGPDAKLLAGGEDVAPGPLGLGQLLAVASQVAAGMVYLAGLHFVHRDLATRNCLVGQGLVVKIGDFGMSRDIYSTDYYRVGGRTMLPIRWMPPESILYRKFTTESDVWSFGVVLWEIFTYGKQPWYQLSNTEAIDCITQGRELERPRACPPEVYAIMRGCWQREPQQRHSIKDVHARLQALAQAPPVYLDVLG
measure_name: IC50 (nM)
Response body: numeric value in nM, unit text excluded.

// query Hi! What's the reported IC50 for Nc1nn2ccc3nc2c1C(=O)NCCOc1ncc(F)cc1C1CCCN31 (stereo not drawn) on High affinity nerve growth factor receptor (Homo sapiens, UniProt P04629)?
// result 0.8

// query Hi! What's the reported IC50 for Nc1nn2ccc3nc2c1C(=O)NCCCn1cc(F)cc(c1=O)[C@H]1C[C@H](F)CN31 on High affinity nerve growth factor receptor (Homo sapiens, UniProt P04629)?
// result 0.23

// query Hi! What's the reported IC50 for C[C@@H]1CCc2ncc(F)cc2[C@H]2C[C@H](F)CN2c2ccn3nc(N)c(c3n2)C(=O)N1 on High affinity nerve growth factor receptor (Homo sapiens, UniProt P04629)?
// result 0.23

Ref: ChEMBL document CHEMBL5728685
